Reference for the values: ChEMBL document CHEMBL4477272

- experiment: Selectivity index, ratio of IC50 for HUVEC to IC50 for human NCI-H460 cells
- Format: toxicity
- settings: HUVEC versus NCI-H460 cells, read-out: Ratio IC50
value.type: selectivity ratio
The response must contain the number and no unit.

### Prompt Look up selectivity ratio for this compound: COc1ccc2c(c[n+](C)c3c4cc5c(cc4ccc23)OCO5)c1OC [CHELERYTHRINE]
### Response 0.96
